assayedTarget: Adenosine receptor A2a (Homo sapiens, UniProt P29274)
Sequence (P29274 whole entry): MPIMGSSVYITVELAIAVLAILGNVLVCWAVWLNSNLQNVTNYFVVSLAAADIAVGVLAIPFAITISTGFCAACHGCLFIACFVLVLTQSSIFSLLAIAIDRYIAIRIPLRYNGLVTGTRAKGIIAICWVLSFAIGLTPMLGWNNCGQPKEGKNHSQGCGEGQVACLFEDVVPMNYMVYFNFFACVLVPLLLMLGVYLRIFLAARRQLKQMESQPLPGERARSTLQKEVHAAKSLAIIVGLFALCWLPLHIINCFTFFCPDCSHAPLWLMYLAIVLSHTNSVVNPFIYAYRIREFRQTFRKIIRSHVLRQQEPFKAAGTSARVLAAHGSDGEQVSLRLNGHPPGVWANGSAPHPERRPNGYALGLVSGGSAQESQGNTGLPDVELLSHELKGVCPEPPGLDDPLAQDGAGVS
measurementNotes: Displacement of [3H]NECA from human recombinant adenosine A2A receptor expressed in CHO cells
Overview of reported Ki across a group of compounds:
assayEndpoint: Ki

INSERT INTO results (compound, assayedtarget, measurement) VALUES
  ('CONc1nc(C#Cc2ccccn2)nc2c1ncn2[C@@H]1O[C@H](CO)[C@@H](O)[C@H]1O', 'Adenosine receptor A2a (Homo sapiens, UniProt P29274)', '2.96 µM'),
  ('CONc1nc(C#CCC(C)O)nc2c1ncn2[C@@H]1O[C@H](CO)[C@@H](O)[C@H]1O (stereo partly specified)', 'Adenosine receptor A2a (Homo sapiens, UniProt P29274)', '0.758 µM'),
  ('CNC(=O)[C@H]1O[C@@H](n2cnc3c(NOC)nc(I)nc32)[C@H](O)[C@@H]1O', 'Adenosine receptor A2a (Homo sapiens, UniProt P29274)', '12.1 µM'),
  ('CCNC(=O)[C@H]1O[C@@H](n2cnc3c(NOC)nc(C#Cc4ccc(C(C)=O)cc4)nc32)[C@H](O)[C@@H]1O', 'Adenosine receptor A2a (Homo sapiens, UniProt P29274)', '4.21 µM'),
  ('CONc1nc(C#Cc2cccc(C(F)(F)F)c2)nc2c1ncn2[C@@H]1O[C@H](CO)[C@@H](O)[C@H]1O', 'Adenosine receptor A2a (Homo sapiens, UniProt P29274)', '8.27 µM'),
  ('CCNC(=O)[C@H]1O[C@@H](n2cnc3c(NOC)nc(C#Cc4ccccn4)nc32)[C@H](O)[C@@H]1O', 'Adenosine receptor A2a (Homo sapiens, UniProt P29274)', '6.46 µM'),
  ('CNC(=O)[C@H]1O[C@@H](n2cnc3c(NOC)nc(C#Cc4ccc(F)cc4)nc32)[C@H](O)[C@@H]1O', 'Adenosine receptor A2a (Homo sapiens, UniProt P29274)', '18.7 µM'),
  ('CONc1nc(C#Cc2ccc(OC)cc2)nc2c1ncn2[C@@H]1O[C@H](CO)[C@@H](O)[C@H]1O', 'Adenosine receptor A2a (Homo sapiens, UniProt P29274)', '1.78 µM'),
  ('CNC(=O)[C@H]1O[C@@H](n2cnc3c(NOC)nc(C#Cc4ccc(C(C)=O)cc4)nc32)[C@H](O)[C@@H]1O', 'Adenosine receptor A2a (Homo sapiens, UniProt P29274)', '10.4 µM'),
  ('CONc1nc(C#CCCCC#N)nc2c1ncn2[C@@H]1O[C@H](CO)[C@@H](O)[C@H]1O', 'Adenosine receptor A2a (Homo sapiens, UniProt P29274)', '1.82 µM'),
  ('CCCCCc1ccc(C#Cc2nc(NOC)c3ncn([C@@H]4O[C@H](C(=O)NCC)[C@@H](O)[C@H]4O)c3n2)cc1', 'Adenosine receptor A2a (Homo sapiens, UniProt P29274)', '27.1 µM'),
  ('CONc1nc(C#Cc2ccc(C)cc2)nc2c1ncn2[C@@H]1O[C@H](CO)[C@@H](O)[C@H]1O', 'Adenosine receptor A2a (Homo sapiens, UniProt P29274)', '35.1 µM'),
  ('CCCCCc1ccc(C#Cc2nc(NOC)c3ncn([C@@H]4O[C@H](CO)[C@@H](O)[C@H]4O)c3n2)cc1', 'Adenosine receptor A2a (Homo sapiens, UniProt P29274)', '6.52 µM'),
  ('CCNC(=O)[C@H]1O[C@@H](n2cnc3c(NOC)nc(C#Cc4ccc(C)cc4)nc32)[C@H](O)[C@@H]1O', 'Adenosine receptor A2a (Homo sapiens, UniProt P29274)', '4.6 µM'),
  ('CNC(=O)[C@H]1O[C@@H](n2cnc3c(NOC)nc(C#Cc4ccccn4)nc32)[C@H](O)[C@@H]1O', 'Adenosine receptor A2a (Homo sapiens, UniProt P29274)', '18 µM'),
  ('CONc1nc(C#Cc2ccc(C(C)=O)cc2)nc2c1ncn2[C@@H]1O[C@H](CO)[C@@H](O)[C@H]1O', 'Adenosine receptor A2a (Homo sapiens, UniProt P29274)', '2.68 µM');
